Recorded melting point values for a group of molecules are listed next.

Worked cases, melting point given:
CC(C)C[C@H](NC(=O)N[C@@H](Cc1ccccc1)C(=O)Nc1cccc(OCc2ccccc2)c1)B1OC2C[C@H]3C[C@H](C3(C)C)[C@@]2(C)O1 (some centres unmarked) | 78 to 80 °C
CC(C)C[C@H](NC(=O)N[C@@H](Cc1ccccc1)C(=O)Nc1cnccn1)B1OC2C[C@H]3C[C@H](C3(C)C)[C@@]2(C)O1 (some centres unmarked) | 93 to 95 °C
COc1ccc(NC(=O)[C@H](Cc2ccccc2)NC(=O)N[C@@H](CC(C)C)B2OC3C[C@H]4C[C@H](C4(C)C)[C@@]3(C)O2)cc1 (some centres unmarked) | 78 to 80 °C

Ask: Provide only the value of recorded melting point for `CC(C)C[C@H](NC(=O)[C@H](Cc1ccccc1)NC(=O)NCc1cccc(Cl)c1Cl)B(O)O`
Result: 119 to 122 °C

Ask: Please give the documented melting point of COc1ccc(OC)c(CNC(=O)N[C@@H](Cc2ccccc2)C(=O)N[C@@H](CC(C)C)B2OC3CC4CC(C4(C)C)[C@]3(C)O2)c1 (some centres unmarked)
Result: 88 to 90 °C
